Answer each item with its documented Positive Cytotoxic Effect.
Test system: panel of approximately sixty human tumor cell lines
Assay: NCI-60 human tumor cell lines screen (SRB), full panel
Format: cell-based
Settings: one dose, 10 μM; ratio of number of cell lines with percent growth of <0 to total number of cell lines

Positive Cytotoxic Effect recorded for this compound, O=c1/c(=C/c2ccccc2F)sc2ncnn12 [Compound 2a] , is 0/59

Positive Cytotoxic Effect recorded for this compound, CCN(CC)c1ccc(/C=c2\sc3ncnn3c2=O)cc1 [Compound 2e] , is 0/58

Positive Cytotoxic Effect recorded for this compound, O=c1/c(=C/c2ccco2)sc2ncnn12 [Compound 2j] , is 0/56

Positive Cytotoxic Effect recorded for this compound, O=c1/c(=C/Nc2ccc(Cl)cc2)sc2ncnn12 [Compound 5f] , is 0/59

Positive Cytotoxic Effect recorded for this compound, O=C(COc1ccc(Cl)cc1/C=c1\sc2ncnn2c1=O)Nc1ccc(Cl)cc1 [Compound 2h] , is 12/57

Positive Cytotoxic Effect recorded for this compound, CC(=O)Oc1ccc(/C=c2\sc3ncnn3c2=O)cc1 [Compound 2d] , is 3/58
